- experimental.conditions: 308.15 K; 101.33 kPa; Liquid; Falling or rolling sphere viscometry
Counter-ions that a name gives are not always drawn.
measurement.type: viscosity (mPa·s)

- molecule: "CCOC=O [ethyl methanoate]"
  value.reported: 0.345
- molecule: "CCOC(C)=O [ethyl acetate]"
  value.reported: 0.381
- molecule: "CC/C=C\\CCOC(C)=O [(Z)-3-hexenyl acetate]"
  value.reported: 0.708
- molecule: "CC/C=C\\CCOC=O [(Z)-3-hexenyl formate]"
  value.reported: 0.496
- molecule: "CCCC(=O)OCCC(C)C [3-methylbutyl butanoate]"
  value.reported: 0.836
- molecule: "CCCCCC(=O)OCC [ethyl hexanoate]"
  value.reported: 0.656

---

- experimental.conditions: 293.15 K; 101.33 kPa; Liquid; Falling or rolling sphere viscometry
Where a name gives a salt, the structure may show the parent alone.
Readings of viscosity for the listed molecules

- molecule: "CCCCCC(=O)OCC [ethyl hexanoate]"
  unit.tag: "mPa·s"
  viscosity: 0.816
- molecule: "CCCCOC(=O)CCC [butyl butanoate]"
  unit.tag: "mPa·s"
  viscosity: 0.948
- molecule: "CCCCCCOC(C)=O [hexyl ethanoate]"
  unit.tag: "mPa·s"
  viscosity: 1.118
- molecule: "CCOC(=O)CC(C)C [ethyl 3-methylbutanoate]"
  unit.tag: "mPa·s"
  viscosity: 0.805
- molecule: "CCOC(=O)CC [ethyl propanoate]"
  unit.tag: "mPa·s"
  viscosity: 0.523
- molecule: "CCOC(=O)C(C)CC (stereo unspecified) [ethyl 2-methylbutanoate]"
  unit.tag: "mPa·s"
  viscosity: 0.831
- molecule: "CCOC(C)=O [ethyl acetate]"
  unit.tag: "mPa·s"
  viscosity: 0.443
- molecule: "CC(=O)OCCC(C)C [3-methylbutyl ethanoate]"
  unit.tag: "mPa·s"
  viscosity: 0.888
- molecule: "CCOC=O [ethyl methanoate]"
  unit.tag: "mPa·s"
  viscosity: 0.402
- molecule: "CC/C=C\\CCOC(=O)C(C)C [cis-3-hexenyl isobutyrate]"
  unit.tag: "mPa·s"
  viscosity: 1.024
- molecule: "CCCC(=O)OCC [ethyl butanoate]"
  unit.tag: "mPa·s"
  viscosity: 0.662
- molecule: "CC/C=C\\CCOC=O [(Z)-3-hexenyl formate]"
  unit.tag: "mPa·s"
  viscosity: 0.599
- molecule: "CCC/C=C/COC(C)=O [(E)-2-hexenyl acetate]"
  unit.tag: "mPa·s"
  viscosity: 0.901
- molecule: "CC/C=C\\CCOC(C)=O [(Z)-3-hexenyl acetate]"
  unit.tag: "mPa·s"
  viscosity: 0.893
- molecule: "CCCC(=O)OCCC(C)C [3-methylbutyl butanoate]"
  unit.tag: "mPa·s"
  viscosity: 1.044
- molecule: "CCCCOC(C)=O [butyl ethanoate]"
  unit.tag: "mPa·s"
  viscosity: 0.732

---

- experimental.conditions: 338.15 K; 101.33 kPa; Liquid
Counter-ions that a name gives are not always drawn.
# key: entry, value: mass density

- molecule: "CCCC(=O)OCCC(C)C [3-methylbutyl butanoate]"
  mass density (kg/m3): 835.45
- molecule: "CC/C=C\\CCOC=O [(Z)-3-hexenyl formate]"
  mass density (kg/m3): 891.54
- molecule: "CCOC(=O)C(C)CC (centres undefined) [ethyl 2-methylbutanoate]"
  mass density (kg/m3): 835.48
- molecule: "CCCCOC(=O)CCC [butyl butanoate]"
  mass density (kg/m3): 844.03
- molecule: "CCCCCCOC(C)=O [hexyl ethanoate]"
  mass density (kg/m3): 831.4
- molecule: "CC(=O)OCCC(C)C [3-methylbutyl ethanoate]"
  mass density (kg/m3): 854.05
- molecule: "CCOC(=O)CC [ethyl propanoate]"
  mass density (kg/m3): 856.81
- molecule: "CCCCCCOC(=O)CCC [hexyl butanoate]"
  mass density (kg/m3): 823.81
- molecule: "CC/C=C\\CCOC(=O)C(C)C [cis-3-hexenyl isobutyrate]"
  mass density (kg/m3): 845.31
- molecule: "CCCCOC(C)=O [butyl ethanoate]"
  mass density (kg/m3): 844.39
- molecule: "CCOC(=O)CC(C)C [ethyl 3-methylbutanoate]"
  mass density (kg/m3): 836.31
- molecule: "CCCC(=O)OCC [ethyl butanoate]"
  mass density (kg/m3): 851.32
- molecule: "CCCCCC(=O)OCC [ethyl hexanoate]"
  mass density (kg/m3): 845.32
- molecule: "CCOC(C)=O [ethyl acetate]"
  mass density (kg/m3): 861.41

---

- experimental.conditions: 308.15 K; 101.33 kPa; Liquid
Where a name gives a salt, the structure may show the parent alone.
measurement.type: mass density (kg/m3)

- molecule: "CCCC(=O)OCC [ethyl butanoate]"
  measurement.type: "mass density"
  value.reported: 866.21
- molecule: "CC(=O)OCCC(C)C [3-methylbutyl ethanoate]"
  measurement.type: "mass density"
  value.reported: 873.1
- molecule: "CCCCCCOC(C)=O [hexyl ethanoate]"
  measurement.type: "mass density"
  value.reported: 858.33
- molecule: "CCCCOC(C)=O [butyl ethanoate]"
  measurement.type: "mass density"
  value.reported: 866.25
- molecule: "CCCCCC(=O)OCC [ethyl hexanoate]"
  measurement.type: "mass density"
  value.reported: 866.74
- molecule: "CCOC(C)=O [ethyl acetate]"
  measurement.type: "mass density"
  value.reported: 882.21
- molecule: "CC/C=C\\CCOC=O [(Z)-3-hexenyl formate]"
  measurement.type: "mass density"
  value.reported: 904.95
- molecule: "CC/C=C\\CCOC(C)=O [(Z)-3-hexenyl acetate]"
  measurement.type: "mass density"
  value.reported: 890.28
- molecule: "CCC/C=C/COC(C)=O [(E)-2-hexenyl acetate]"
  measurement.type: "mass density"
  value.reported: 888.46
- molecule: "CCOC(=O)C(C)CC (configuration not stated) [ethyl 2-methylbutanoate]"
  measurement.type: "mass density"
  value.reported: 857.88
- molecule: "CCCC(=O)OCCC(C)C [3-methylbutyl butanoate]"
  measurement.type: "mass density"
  value.reported: 857.08
- molecule: "CCCCOC(=O)CCC [butyl butanoate]"
  measurement.type: "mass density"
  value.reported: 862.19
- molecule: "CC/C=C\\CCOC(=O)C(C)C [cis-3-hexenyl isobutyrate]"
  measurement.type: "mass density"
  value.reported: 870.34
- molecule: "CCOC(=O)CC [ethyl propanoate]"
  measurement.type: "mass density"
  value.reported: 874.12
- molecule: "CCCCCCOC(=O)CCC [hexyl butanoate]"
  measurement.type: "mass density"
  value.reported: 841.51
- molecule: "CCOC(=O)CC(C)C [ethyl 3-methylbutanoate]"
  measurement.type: "mass density"
  value.reported: 855.98
- molecule: "CCOC=O [ethyl methanoate]"
  measurement.type: "mass density"
  value.reported: 899.54

---

- experimental.conditions: 298.15 K; 101.33 kPa; Liquid; Falling or rolling sphere viscometry
± gives the expanded uncertainty stated by the source.

- molecule: "CCOC(C)=O [ethyl acetate]"
  viscosity: "0.421 ± 0.009 mPa·s"
- molecule: "CCCCCC(=O)OCC [ethyl hexanoate]"
  viscosity: "0.757 ± 0.011 mPa·s"
- molecule: "CCOC(=O)C(C)CC (centres undefined) [ethyl 2-methylbutanoate]"
  viscosity: "0.774 ± 0.01 mPa·s"
- molecule: "CCCCCCOC(C)=O [hexyl ethanoate]"
  viscosity: "1.036 ± 0.012 mPa·s"

---

- experimental.conditions: 303.15 K; 101.33 kPa; Liquid
measurement.type: mass density (kg/m3)

- compound: "CCCCOC(C)=O [butyl ethanoate]"
  value.reported: 871.3
- compound: "CCCCCCOC(C)=O [hexyl ethanoate]"
  value.reported: 862.6
- compound: "CCCC(=O)OCCC(C)C [3-methylbutyl butanoate]"
  value.reported: 859.14
- compound: "CCCCOC(=O)CCC [butyl butanoate]"
  value.reported: 866.1

---

mass density by entry:
- experimental.conditions: 333.15 K; 101.33 kPa; Liquid
Structures can show the parent of a compound that is named as a salt.

- molecule: "CC/C=C\\CCOC=O [(Z)-3-hexenyl formate]"
  unit.tag: "kg/m3"
  mass density: 894.16
- molecule: "CCOC(=O)CC(C)C [ethyl 3-methylbutanoate]"
  unit.tag: "kg/m3"
  mass density: 840.07
- molecule: "CC(=O)OCCC(C)C [3-methylbutyl ethanoate]"
  unit.tag: "kg/m3"
  mass density: 857.98
- molecule: "CC/C=C\\CCOC(C)=O [(Z)-3-hexenyl acetate]"
  unit.tag: "kg/m3"
  mass density: 871.43
- molecule: "CC/C=C\\CCOC(=O)C(C)C [cis-3-hexenyl isobutyrate]"
  unit.tag: "kg/m3"
  mass density: 848.44
- molecule: "CCCCCCOC(=O)CCC [hexyl butanoate]"
  unit.tag: "kg/m3"
  mass density: 826.77
- molecule: "CCOC(=O)CC [ethyl propanoate]"
  unit.tag: "kg/m3"
  mass density: 858.14
- molecule: "CCCCCCOC(C)=O [hexyl ethanoate]"
  unit.tag: "kg/m3"
  mass density: 835.15
- molecule: "CCC/C=C/COC(C)=O [(E)-2-hexenyl acetate]"
  unit.tag: "kg/m3"
  mass density: 867.49
- molecule: "CCOC(=O)C(C)CC (stereo unspecified) [ethyl 2-methylbutanoate]"
  unit.tag: "kg/m3"
  mass density: 838.41
- molecule: "CCCCCC(=O)OCC [ethyl hexanoate]"
  unit.tag: "kg/m3"
  mass density: 847.88
- molecule: "CCOC(C)=O [ethyl acetate]"
  unit.tag: "kg/m3"
  mass density: 864.72
- molecule: "CCCC(=O)OCC [ethyl butanoate]"
  unit.tag: "kg/m3"
  mass density: 853.89
- molecule: "CCCC(=O)OCCC(C)C [3-methylbutyl butanoate]"
  unit.tag: "kg/m3"
  mass density: 840.73
- molecule: "CCCCOC(C)=O [butyl ethanoate]"
  unit.tag: "kg/m3"
  mass density: 847.92
- molecule: "CCCCOC(=O)CCC [butyl butanoate]"
  unit.tag: "kg/m3"
  mass density: 846.22
